- system tested: human glucagon receptor (human) (UniProt P47871)
- Sequence (P47871 26-477): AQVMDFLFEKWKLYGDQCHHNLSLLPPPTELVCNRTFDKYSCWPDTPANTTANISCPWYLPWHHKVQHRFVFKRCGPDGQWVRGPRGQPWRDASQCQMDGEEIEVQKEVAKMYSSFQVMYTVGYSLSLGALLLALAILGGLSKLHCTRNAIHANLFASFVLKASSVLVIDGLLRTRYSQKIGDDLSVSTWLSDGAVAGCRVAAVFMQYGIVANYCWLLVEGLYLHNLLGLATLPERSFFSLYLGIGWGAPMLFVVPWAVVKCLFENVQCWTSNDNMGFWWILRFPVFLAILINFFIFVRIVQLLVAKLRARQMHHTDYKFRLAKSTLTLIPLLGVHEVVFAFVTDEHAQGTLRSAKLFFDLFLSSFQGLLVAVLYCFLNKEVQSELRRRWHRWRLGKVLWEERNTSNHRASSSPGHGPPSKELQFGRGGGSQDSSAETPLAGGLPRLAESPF
- measurement description: cell-based or functional assay
Listed next: entries and their corresponding cAMP Rel EC50 (in the presence of 1% HSA).
measured metric: cAMP Rel EC50 (in the presence of 1% HSA) (nM)

YXQGTXTSDXSIXLDXKAQXEFIEXLIEGGPSSGEPPPSGS (non-natural residues; AEEA-γGlu-C18 diacid acyl; C-terminal amide; synthetic construct; SITE 2: note = 2-Aminoisobutyric Acid; SITE 6: note = alpha-methyl-2-fluoro-L-phenylalanine; SITE 10: note = 3-(4-Pyridyl)-L-alanine; SITE 13: note = alpha-methyl-leucine; SITE 16: note = L-ornithine; SITE 17: note = Lysine is chemically modified through conjugation of the epsil) [Example 644]
626
YXQGTXTSDXXIXLDXKAQXEFIEXLVEGGPSSGAPPPGGE (not fully specified; non-natural residues; AEEA-γGlu-C18 diacid on Lys; C-terminal amide; synthetic construct; SITE 2: note = 2-Aminoisobutyric Acid; SITE 6: note = alpha-methyl-2-fluoro-L-phenylalanine; SITE 10: note = 3-(4-Pyridyl)-L-alanine; SITE 11: note = alpha-methyl-L-serine; SITE 13: note = alpha-methyl-leucine; SITE 16: note = L-ornithine; SITE 17: note = Lysine is chemically mo) [Example 1154]
320
YXQGTXTSDXXILLDXKAQXXFIEYLIEGGPSSGEPPPEGSEE (non-natural residues; lysine acylated with C18 diacid; C-terminal amide; synthetic construct; SITE 2: note = 2-Aminoisobutyric Acid; SITE 6: note = alpha-methyl-2-fluoro-L-phenylalanine; SITE 10: note = 3-(4-Pyridyl)-L-alanine; SITE 11: note = alpha-methyl-L-serine; SITE 16: note = L-ornithine; SITE 17: note = Lysine is chemically modified through conjugation of the epsi) [Example 603]
419

Source of measurements: patent US20240270821A1
